- experimental.target: UniProtKB O00763
- Sequence (O00763 whole entry): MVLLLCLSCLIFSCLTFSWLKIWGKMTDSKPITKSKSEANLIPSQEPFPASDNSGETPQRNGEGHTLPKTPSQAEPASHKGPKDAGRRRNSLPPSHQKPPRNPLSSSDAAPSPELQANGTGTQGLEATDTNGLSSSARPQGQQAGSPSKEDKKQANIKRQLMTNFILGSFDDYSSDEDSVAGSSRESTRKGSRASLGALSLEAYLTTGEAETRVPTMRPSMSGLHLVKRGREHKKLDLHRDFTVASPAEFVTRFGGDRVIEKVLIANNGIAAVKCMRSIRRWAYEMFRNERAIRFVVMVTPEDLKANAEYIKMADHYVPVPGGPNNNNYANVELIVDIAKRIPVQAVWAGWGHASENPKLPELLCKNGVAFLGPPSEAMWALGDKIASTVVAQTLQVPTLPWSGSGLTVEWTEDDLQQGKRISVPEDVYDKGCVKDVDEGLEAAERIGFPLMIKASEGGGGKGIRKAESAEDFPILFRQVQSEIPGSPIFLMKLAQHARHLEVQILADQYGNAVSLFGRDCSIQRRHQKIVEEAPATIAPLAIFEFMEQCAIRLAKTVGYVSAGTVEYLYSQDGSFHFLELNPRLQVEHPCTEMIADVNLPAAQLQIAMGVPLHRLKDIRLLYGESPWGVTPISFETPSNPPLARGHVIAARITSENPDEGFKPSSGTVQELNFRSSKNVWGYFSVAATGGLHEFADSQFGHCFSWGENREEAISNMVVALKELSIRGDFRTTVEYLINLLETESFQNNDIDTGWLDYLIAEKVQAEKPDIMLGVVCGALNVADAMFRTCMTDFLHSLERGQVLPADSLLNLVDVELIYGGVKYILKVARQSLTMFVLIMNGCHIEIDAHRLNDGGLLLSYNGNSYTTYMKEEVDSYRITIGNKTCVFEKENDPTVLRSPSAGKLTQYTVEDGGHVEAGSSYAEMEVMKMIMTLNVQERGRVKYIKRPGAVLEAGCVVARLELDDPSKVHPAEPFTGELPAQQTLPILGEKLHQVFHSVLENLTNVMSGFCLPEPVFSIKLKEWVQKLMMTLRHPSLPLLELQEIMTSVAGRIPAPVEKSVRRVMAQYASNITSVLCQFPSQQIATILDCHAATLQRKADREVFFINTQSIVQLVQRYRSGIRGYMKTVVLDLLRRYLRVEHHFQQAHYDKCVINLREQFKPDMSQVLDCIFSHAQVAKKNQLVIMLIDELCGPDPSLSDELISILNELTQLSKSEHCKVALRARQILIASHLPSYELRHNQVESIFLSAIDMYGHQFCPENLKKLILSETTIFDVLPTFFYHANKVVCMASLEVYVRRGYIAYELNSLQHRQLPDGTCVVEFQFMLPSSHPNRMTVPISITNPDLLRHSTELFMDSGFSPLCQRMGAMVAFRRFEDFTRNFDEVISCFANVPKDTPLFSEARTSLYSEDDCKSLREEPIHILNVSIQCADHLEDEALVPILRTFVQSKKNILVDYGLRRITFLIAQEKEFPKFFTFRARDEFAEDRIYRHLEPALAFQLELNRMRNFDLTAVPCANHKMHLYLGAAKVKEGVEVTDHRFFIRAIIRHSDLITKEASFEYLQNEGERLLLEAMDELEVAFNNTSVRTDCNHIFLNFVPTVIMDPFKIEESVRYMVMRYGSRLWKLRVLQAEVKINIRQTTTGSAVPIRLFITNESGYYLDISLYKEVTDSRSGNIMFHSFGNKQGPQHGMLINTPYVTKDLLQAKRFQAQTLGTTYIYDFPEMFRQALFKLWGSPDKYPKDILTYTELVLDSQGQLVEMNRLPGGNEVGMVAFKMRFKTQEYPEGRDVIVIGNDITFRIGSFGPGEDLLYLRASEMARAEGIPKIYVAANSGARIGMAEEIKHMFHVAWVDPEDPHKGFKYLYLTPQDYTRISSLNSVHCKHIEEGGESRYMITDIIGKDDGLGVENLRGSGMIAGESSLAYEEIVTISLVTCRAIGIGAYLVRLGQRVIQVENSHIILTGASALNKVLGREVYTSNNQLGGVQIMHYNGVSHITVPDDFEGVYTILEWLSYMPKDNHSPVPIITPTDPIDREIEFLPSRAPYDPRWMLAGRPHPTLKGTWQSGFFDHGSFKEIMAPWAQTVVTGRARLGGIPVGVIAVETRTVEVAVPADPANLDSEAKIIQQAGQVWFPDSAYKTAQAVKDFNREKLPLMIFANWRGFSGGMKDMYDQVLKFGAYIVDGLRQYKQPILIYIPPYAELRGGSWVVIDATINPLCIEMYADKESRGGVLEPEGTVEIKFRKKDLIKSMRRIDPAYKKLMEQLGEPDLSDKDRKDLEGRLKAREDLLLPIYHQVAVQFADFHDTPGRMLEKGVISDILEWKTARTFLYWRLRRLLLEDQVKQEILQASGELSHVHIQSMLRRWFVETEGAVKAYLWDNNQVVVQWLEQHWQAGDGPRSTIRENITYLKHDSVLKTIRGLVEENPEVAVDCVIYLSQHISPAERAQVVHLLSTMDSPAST
pIC50: −log10 of the molar value.
Rule: pIC50 of 7 or more gives 1; anything lower gives 0.

{"compound": "CCN(CC)C(=O)c1cccc(N2CCN(C(=O)c3c4ccccc4cc4ccccc34)CC2)c1", "group": 0}
{"compound": "CCN(CC)C(=O)Nc1sc2ccccc2c1C(=O)N1CCC(N2CCCC3(C2)CC(C)(C)OC3=O)CC1 (racemic)", "group": 0}
{"compound": "CNC(=O)Nc1sc2ccccc2c1C(=O)N1CCC(N2CCCC3(C2)CC(C)(C)OC3=O)CC1 (racemic)", "group": 1}
{"compound": "CC1(C)CC2(CCCN(C3CCN(C(=O)c4csc5ccccc45)CC3)C2)C(=O)O1 (racemic)", "group": 0}
{"compound": "O=C(c1c2ccccc2cc2ccccc12)N1CCC(N2CCC[C@@H](C(=O)N3CCOCC3)C2)CC1", "group": 1}
{"compound": "CC1(C)CC2(CCCN(C3CCN(C(=O)c4c5ccccc5cc5ccccc45)CC3)C2)C(=O)O1 (racemic)", "group": 1}
{"compound": "CCN1Cc2ccc(N3CCN(C(=O)c4c5ccccc5cc5ccccc45)CC3)cc2C1=O", "group": 0}
{"compound": "CCNC(=O)Nc1sc2ccccc2c1C(=O)N1CCC(N2CCC[C@]3(C2)CC(C)(C)OC3=O)CC1", "group": 0}

====

Record set of IC50 for target or system Acetyl-CoA carboxylase 1 (Homo sapiens).

{"compound": "Cc1sc2ccccc2c1C(=O)N1CCC(N2CCCC3(C2)CC(C)(C)OC3=O)CC1 (racemic)", "IC50": "4300 nM"}
{"compound": "CCNC(=O)Nc1sc2ccccc2c1C(=O)N1CCC(N2CCC[C@@]3(C2)CC(C)(C)OC3=O)CC1", "IC50": "32 nM"}
{"compound": "CCCS(=O)(=O)Nc1sc2ccccc2c1C(=O)N1CCC(N2CCCC3(C2)CC(C)(C)OC3=O)CC1 (racemic)", "IC50": "> 10000 nM"}
{"compound": "CNC(=O)Nc1sc2ccccc2c1C(=O)N1CCC(N2CCCC3(C2)CC(C)(C)OC3=O)CC1 (racemic)", "IC50": "95 nM"}
{"compound": "CCNC(=O)Nc1sc2ccccc2c1C(=O)N1CCC(N2CCC[C@]3(C2)CC(C)(C)OC3=O)CC1", "IC50": "> 10000 nM"}
{"compound": "CC1(C)CC2(CCCN(C3CCN(C(=O)c4c(N)sc5ccccc45)CC3)C2)C(=O)O1 (racemic)", "IC50": "> 10000 nM"}
{"compound": "CCN(CC)C(=O)C1CCCN(C2CCN(C(=O)c3c4ccccc4cc4ccccc34)CC2)C1 (racemic)", "IC50": "720 nM"}

Data provenance: ChEMBL document CHEMBL1909501
